Test Description: physchem
Settings: 50 mM phosphate buffer, 25 °C, pH 7.4, aqueous buffer, thermodynamic from solid
Recorded Metric: solubility at 16 h

* Cn1nccc1-c1nccc(N2CCC(C(=O)N3OCC[C@H]3c3cnccn3)CC2)n1 [Example 24] | > 1190 µM
* Cc1ncc([C@@H]2CCON2C(=O)[C@@H]2CCN(c3ncnc(-c4ccnn4C)n3)CC23CC3)cc1F [Example 48] | 231 µM
* Cc1ccc([C@@H]2CCON2C(=O)C2CCN(c3nccc(N4C(=O)CCC4(C)C)n3)CC2)cn1 [Example 88] | > 1080 µM
* O=C(C1CCN(c2ncc(F)c(N3CCC4(CC4)C3=O)n2)CC1)N1OCC[C@H]1c1cncc(F)c1 [Example 104] | > 1030 µM
* Cc1nccn1-c1nccc(N2CCC(C(=O)N3OCC[C@H]3c3cnccn3)CC2)n1 [Example 29] | > 1190 µM

Report solubility at 16 h for every entry below.
1. Cc1cncc([C@@H]2CCON2C(=O)C2CCN(c3nccc(N4CCCC4=O)n3)CC2)c1 [Example 50]
2. Cc1ncc([C@@H]2CCON2C(=O)C2CCN(c3cc(-n4ccnc4C)ncn3)CC2)cc1F [Example 21]
3. O=C(C1CCN(c2ncnc(-c3nccs3)n2)CC1)N1OCC[C@H]1c1cnccn1 [Example 14]
4. Cc1nc([C@@H]2CCON2C(=O)C2CCN(c3nccc(N4CCC(F)(F)C4=O)n3)CC2)cs1 [Example 59]
5. O=C(C1CCN(c2nccc(N3CCCC4(CC4)C3=O)n2)CC1)N1OCC[C@H]1c1cnccn1 [Example 57]
6. Cc1ccc([C@@H]2CCON2C(=O)[C@H]2CCN(c3cc(-c4ccnn4C)ncn3)CC23CC3)cn1 [Example 80]

Return:
1: > 1150 µM; 2: > 1110 µM; 3: > 1180 µM; 4: 217 µM; 5: > 1080 µM; 6: > 1090 µM
